Test: in vitro
Set-up: species or system HB2, HEK293
Settings: human, ccd841 cells
Entries whose viability at 48 h, 10 µM is below 90% take true; entries at or above 90% take false.

Consider the compound NS(=O)(=O)c1cccc(NC(=O)CCl)c1 . Is its viability at 48 h, 10 µM strictly less than 90%?
true

Consider the compound Cc1cc(NC(=O)CCl)n(-c2ccc(F)cc2)n1 . Is its viability at 48 h, 10 µM strictly less than 90%?
true

Consider the compound O=C(CCl)Nc1cc(C(F)(F)F)ccc1N1CCOCC1 . Is its viability at 48 h, 10 µM strictly less than 90%?
false

Consider the compound O=C(CCl)N1CCN(S(=O)(=O)c2c(F)cccc2F)CC1 . Is its viability at 48 h, 10 µM strictly less than 90%?
true

Consider the compound C=CC(=O)N1CC(C(=O)NC)C1 . Is its viability at 48 h, 10 µM strictly less than 90%?
false

Consider the compound C=CC(=O)NC1(CO)Cc2ccccc2C1 . Is its viability at 48 h, 10 µM strictly less than 90%?
false

Consider the compound O=C(CCl)NNC(=O)c1ccccc1 . Is its viability at 48 h, 10 µM strictly less than 90%?
true

Consider the compound Cc1c(C#N)sc(NC(=O)CCl)c1C#N . Is its viability at 48 h, 10 µM strictly less than 90%?
false

Consider the compound CNC(=O)CNC(=O)CCl . Is its viability at 48 h, 10 µM strictly less than 90%?
false

Consider the compound CC(NC(=O)CCl)c1ccc(Cl)cc1 (stereo not drawn) . Is its viability at 48 h, 10 µM strictly less than 90%?
true

Consider the compound C=CC(=O)N1CC=C(C(F)(F)F)CC1 . Is its viability at 48 h, 10 µM strictly less than 90%?
false

Consider the compound O=C(CCl)N(c1ccccc1)C1CCS(=O)(=O)C1 (stereo not drawn) . Is its viability at 48 h, 10 µM strictly less than 90%?
true

Consider the compound O=C(CCl)NCc1ccco1 . Is its viability at 48 h, 10 µM strictly less than 90%?
true

Consider the compound CN(Cc1ccsc1)C(=O)CCl . Is its viability at 48 h, 10 µM strictly less than 90%?
true

Consider the compound C=CC(=O)N1CCCN(S(=O)(=O)c2cccc3cnccc23)CC1 . Is its viability at 48 h, 10 µM strictly less than 90%?
false

Consider the compound N#Cc1ccc(NC(=O)CCl)cc1 . Is its viability at 48 h, 10 µM strictly less than 90%?
true

Consider the compound COc1ccccc1NC(=O)CCl . Is its viability at 48 h, 10 µM strictly less than 90%?
true

Consider the compound C=CC(=O)N1CCCC1C(=O)Nc1nc2ccccc2s1 (stereo not drawn) . Is its viability at 48 h, 10 µM strictly less than 90%?
false

Consider the compound O=C1CC(C(F)(F)F)N(C(=O)CCl)c2ccccc2N1 (stereo not drawn) . Is its viability at 48 h, 10 µM strictly less than 90%?
true

Consider the compound CS(=O)(=O)c1ccc(NC(=O)CCl)cc1 . Is its viability at 48 h, 10 µM strictly less than 90%?
true

Consider the compound O=C(CCl)NNc1ccccn1 . Is its viability at 48 h, 10 µM strictly less than 90%?
false

Consider the compound Cc1ccc(CN(C)C(=O)CCl)o1 . Is its viability at 48 h, 10 µM strictly less than 90%?
true

Consider the compound CN(CC(=O)N1CCOCC1)C(=O)CCl . Is its viability at 48 h, 10 µM strictly less than 90%?
false

Consider the compound CC1CCC(C#N)(N(C)C(=O)CCl)CC1 (stereo not drawn) . Is its viability at 48 h, 10 µM strictly less than 90%?
true

Consider the compound CC(=O)N1CCC(NC(=O)CCl)CC1 . Is its viability at 48 h, 10 µM strictly less than 90%?
true

Consider the compound COC(=O)c1ccc(Cl)c(NC(=O)CCl)c1 . Is its viability at 48 h, 10 µM strictly less than 90%?
true

Consider the compound Cc1cccc([N+](=O)[O-])c1NC(=O)CCl . Is its viability at 48 h, 10 µM strictly less than 90%?
true

Consider the compound CS(=O)(=O)N1CCN(C(=O)CCl)CC1 . Is its viability at 48 h, 10 µM strictly less than 90%?
true

Consider the compound C=CC(=O)NC(C)c1ccc(C(F)(F)F)nc1Cl (stereo not drawn) . Is its viability at 48 h, 10 µM strictly less than 90%?
false

Consider the compound O=C(CCl)NNC(=O)c1ccccc1F . Is its viability at 48 h, 10 µM strictly less than 90%?
true

Consider the compound O=C(CCl)Nc1cc(Cl)ccc1-n1cncn1 . Is its viability at 48 h, 10 µM strictly less than 90%?
true

Consider the compound O=C(CCl)NC(=O)c1ccc[nH]1 . Is its viability at 48 h, 10 µM strictly less than 90%?
false

Consider the compound O=C(CCl)NNC(=O)C1COc2ccccc2O1 (stereo not drawn) . Is its viability at 48 h, 10 µM strictly less than 90%?
true

Consider the compound O=C(CCl)N1CCC2CCCCC2C1 (stereo not drawn) . Is its viability at 48 h, 10 µM strictly less than 90%?
true

Consider the compound O=C(CCl)NCC#Cc1cccc(C(F)(F)F)c1 . Is its viability at 48 h, 10 µM strictly less than 90%?
true

Consider the compound O=C(CCl)Nc1cc(C(F)(F)F)ccc1-n1cncn1 . Is its viability at 48 h, 10 µM strictly less than 90%?
true

Consider the compound O=C(CCl)N1CCN(c2ccc(Cl)cc2[N+](=O)[O-])CC1 . Is its viability at 48 h, 10 µM strictly less than 90%?
true

Consider the compound O=C(CCl)NN1C(=O)NC2(CCCCC2)C1=O . Is its viability at 48 h, 10 µM strictly less than 90%?
false

Consider the compound COc1ccccc1C(=O)NC(=O)CCl . Is its viability at 48 h, 10 µM strictly less than 90%?
false

Consider the compound C=CC(=O)N(C)CC1CCn2ccnc2C1 (stereo not drawn) . Is its viability at 48 h, 10 µM strictly less than 90%?
false

Consider the compound Cc1ccc(NC(=O)CCl)cc1S(N)(=O)=O . Is its viability at 48 h, 10 µM strictly less than 90%?
true

Hey, just so you know, these numbers are from paper PMC6556873.
